Exercise: state measured residual activity for each of the molecules provided.
target.under.test: PTK2B (human)
assay.overview: radiometric filter-binding kinase assay, Kinase HotSpot
condition.context: compound 0.5 µM; ATP 10 µM
One number for each entry, in %.

Examples from the recorded data:
Fc1ccc(-c2nc3n(c2-c2ccncc2)CCS3)cc1 : 106
NC(=O)c1cccc(-c2cc(Nc3ccc(OC(F)(F)F)cc3)ncn2)c1 : 94.6
CS(=O)(=O)CCNCc1ccc(-c2ccc3ncnc(Nc4ccc(OCc5cccc(F)c5)c(Cl)c4)c3c2)o1 : 101
O=C1C(Cl)=C(N2C(=O)CCC2=O)C(=O)c2ccccc21 : 105
COc1cc2ncnc(Nc3ccc(OCc4ccccc4)cc3)c2cc1OC : 99.8

State recorded residual activity for all listed molecules.
1. Cc1nc(-c2ccccc2)c(-c2ccncc2)o1
2. CC(C)(C)c1cc(C=C(C#N)C#N)cc(Br)c1O
3. c1ccc2c(-c3ccncc3)c[nH]c2c1
4. CO[C@@H]1[C@H](N(C)C(=O)c2ccccc2)C[C@H]2O[C@]1(C)n1c3ccccc3c3c4c(c5c6ccccc6n2c5c31)C(=O)NC4
5. CN(C)S(=O)(=O)c1ccc2c(c1)/C(=C/c1cc3c([nH]1)CCCC3)C(=O)N2
6. Cc1cncc2cccc(S(=O)(=O)N3CCCN(C(=O)CN)C[C@H]3C)c12
7. COc1ccc2c(c1)c(C1=C(c3c[nH]c4ccccc34)C(=O)NC1=O)cn2CCCN(C)C

Reply:
1. 100
2. 99.3
3. 95.3
4. 58.2
5. 52.6
6. 92.5
7. 104
